Quick list: inhibition per entry.
Target: Cathepsin D (Bos taurus) (UniProt P80209)
Sequence (P80209 whole entry): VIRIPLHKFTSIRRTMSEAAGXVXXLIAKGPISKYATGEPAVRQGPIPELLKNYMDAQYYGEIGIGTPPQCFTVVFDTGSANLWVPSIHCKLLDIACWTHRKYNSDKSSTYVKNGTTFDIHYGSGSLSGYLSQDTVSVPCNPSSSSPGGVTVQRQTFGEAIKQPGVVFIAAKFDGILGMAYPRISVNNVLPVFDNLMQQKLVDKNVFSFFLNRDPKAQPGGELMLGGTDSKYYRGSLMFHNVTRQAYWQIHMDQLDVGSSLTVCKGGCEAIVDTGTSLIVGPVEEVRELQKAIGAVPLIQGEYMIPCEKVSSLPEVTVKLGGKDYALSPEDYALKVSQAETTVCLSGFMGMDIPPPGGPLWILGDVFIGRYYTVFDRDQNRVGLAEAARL
Experiment: Evaluated for the percentage of inhibition of bovine cathepsin D at E-5M concentration
ASSAY READOUT: inhibition (%)

compound=CC(C)S(=O)(=O)C[C@H](O)[C@H](CC1CCCCC1)NC(=O)[C@H](Cc1ccccc1)NC(=O)[C@H](Cc1ccccc1)NC(=O)OC(C)(C)C assay_readout=inhibition units_of_measure=% numeric_value=0
compound=CC(C)(C)OC(=O)N[C@@H](Cc1ccccc1)C(=O)N[C@@H](Cc1c[nH]cn1)C(=O)N[C@@H](CC1CCCCC1)[C@@H](O)CS(=O)(=O)C1CCCCC1 assay_readout=inhibition units_of_measure=% numeric_value=0
compound="O=C(NC(Cc1c[nH]cn1)C(=O)N[C@@H](CC1CCCCC1)[C@@H](O)CSC1CCCCC1)C(Cc1ccccc1)Cc1ccccc1 (stereo partly drawn)" assay_readout=inhibition units_of_measure=% numeric_value=0
compound=CC(C)S(=O)(=O)C[C@H](O)[C@H](CC1CCCCC1)NC(=O)[C@@H](NC(=O)[C@H](Cc1ccccc1)NC(=O)OC(C)(C)C)[C@@H](C)OCc1ccccc1 assay_readout=inhibition units_of_measure=% numeric_value=95
compound="CC(C)S(=O)(=O)C[C@H](O)[C@H](CC1CCCCC1)NC(=O)C(Cc1c[nH]cn1)NC(=O)[C@@H](Cc1ccccc1)NC(=O)OC(C)(C)C (stereo partly drawn)" assay_readout=inhibition units_of_measure=% numeric_value=0
compound=CC(C)S(=O)(=O)C[C@H](O)[C@H](CC1CCCCC1)NC(=O)[C@H](Cc1c[nH]cn1)NC(=O)[C@H](Cc1ccccc1)NC(=O)OC(C)(C)C assay_readout=inhibition units_of_measure=% numeric_value=0
compound=CC(C)(C)OC(=O)N[C@@H](Cc1ccccc1)C(=O)N[C@@H](Cc1c[nH]cn1)C(=O)N[C@@H](Cc1ccccc1)[C@@H](O)CSC1CCCCC1 assay_readout=inhibition units_of_measure=% numeric_value=0
compound=CC(C)S(=O)(=O)C[C@H](O)[C@H](CC1CCCCC1)NC(=O)[C@H](Cc1c[nH]cn1)NC(=O)[C@H](Cc1ccccc1)NC(=O)CC(C)(C)C assay_readout=inhibition units_of_measure=% numeric_value=0
compound=CC(C)S(=O)(=O)C[C@H](O)[C@H](CC1CCCCC1)NC(=O)[C@H](Cc1c[nH]cn1)NC(=O)[C@@H](NC(=O)OC(C)(C)C)[C@@H](C)OCc1ccccc1 assay_readout=inhibition units_of_measure=% numeric_value=0
compound=CC(C)S(=O)(=O)C[C@H](O)[C@H](CC1CCCCC1)NC(=O)[C@H](C)NC(=O)[C@H](Cc1ccccc1)NC(=O)OC(C)(C)C assay_readout=inhibition units_of_measure=% numeric_value=55
compound=CC(C)S(=O)(=O)C[C@H](O)[C@H](CC1CCCCC1)NC(=O)[C@H](CO)NC(=O)[C@H](Cc1ccccc1)NC(=O)OC(C)(C)C assay_readout=inhibition units_of_measure=% numeric_value=47
compound="CC(C)S(=O)(=O)C[C@H](O)[C@H](CC1CCCCC1)NC(=O)C(Cc1c[nH]cn1)NC(=O)C(Cc1ccccc1)Cc1ccccc1 (stereo partly drawn)" assay_readout=inhibition units_of_measure=% numeric_value=0
compound=COc1ccc(C[C@H](NC(=O)OC(C)(C)C)C(=O)N[C@@H](Cc2c[nH]cn2)C(=O)N[C@@H](CC2CCCCC2)[C@@H](O)CS(=O)(=O)C(C)C)cc1 assay_readout=inhibition units_of_measure=% numeric_value=0
